Here's a roundup of pKi values tested on 5-hydroxytryptamine receptor 2B (Homo sapiens, UniProt P41595), taken from various published works.
Sequence (P41595 whole entry): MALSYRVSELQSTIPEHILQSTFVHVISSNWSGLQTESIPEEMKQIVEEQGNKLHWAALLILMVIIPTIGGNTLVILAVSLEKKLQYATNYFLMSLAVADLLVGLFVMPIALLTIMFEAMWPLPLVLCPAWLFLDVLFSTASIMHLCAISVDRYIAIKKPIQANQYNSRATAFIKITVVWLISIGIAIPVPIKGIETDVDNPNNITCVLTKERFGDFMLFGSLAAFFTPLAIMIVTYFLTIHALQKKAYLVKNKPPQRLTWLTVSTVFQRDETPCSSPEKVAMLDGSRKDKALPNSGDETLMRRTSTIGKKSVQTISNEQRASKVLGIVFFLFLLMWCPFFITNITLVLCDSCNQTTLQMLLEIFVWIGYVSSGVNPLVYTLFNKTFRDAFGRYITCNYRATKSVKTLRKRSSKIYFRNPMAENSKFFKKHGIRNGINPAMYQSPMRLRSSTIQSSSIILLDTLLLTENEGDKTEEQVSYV
Scale note: pKi = -log10(concentration in M).

Sample records with pKi:
[
  {
    "smiles-entry": "Cc1ccc(CCCc2cc(=O)c3c(O)cccc3o2)cc1",
    "pKi": 5.80
  },
  {
    "smiles-entry": "Cc1ccc2c(OCCN3CCC(Cc4ccc5c(c4F)NC(=O)CO5)CC3)cc(Cl)cc2n1",
    "pKi": 5.80
  },
  {
    "smiles-entry": "Cl.O=S(=O)(c1ccc2ccccc2c1)c1n[nH]c2ccc(NC3CCNCC3)cc12",
    "pKi": 6.17
  },
  {
    "smiles-entry": "COc1cc(OC)c(C(=O)CCCCN2CCC3(CC2)NC(=O)NC3=O)cc1NS(=O)(=O)c1ccc(C(C)=O)cc1",
    "pKi": 6.60
  }
]

Which measured pKi belongs to `COc1cccc2[nH]cc(-c3ccnc(N)n3)c12` , tested on 5-hydroxytryptamine receptor 2B (Homo sapiens, UniProt P41595)?
7.06

* * *

Here's a roundup of pKi values tested on 5-hydroxytryptamine receptor 2B (Homo sapiens), taken from various published works.
Scale note: pKi = -log10(concentration in M).

[
  {
    "compound": "COc1ccc(N2CC=C(c3cccc(Cl)c3)C2=O)cc1OCCN1CCC(C)CC1",
    "system-tested": "5-hydroxytryptamine receptor 2B (Homo sapiens)",
    "pKi": 6.30
  }
]

Which measured pKi belongs to `CC(C)(C)n1nc2c(c1-c1ccccc1)CCNCC2` , tested on 5-hydroxytryptamine receptor 2B (Homo sapiens)?
7.37

Which measured pKi belongs to `COc1ccccc1CCCN1CCN(Cc2cc3ccccc3o2)CC1` , tested on 5-hydroxytryptamine receptor 2B (Homo sapiens)?
6.20

Which measured pKi belongs to COc1ccc(N2Cc3cc(Cl)cc(Cl)c3C2=O)cc1OCCN1CCCC(C)C1 (stereo unspecified) , tested on 5-hydroxytryptamine receptor 2B (Homo sapiens)?
6.90

Which measured pKi belongs to `Cc1ccc2c(OCCN3CCN(Cc4cccc5cccnc45)CC3)cccc2n1` , tested on 5-hydroxytryptamine receptor 2B (Homo sapiens)?
5.90

Which measured pKi belongs to `COc1cccc(CCCCN2CCN(Cc3cc4ccccc4o3)CC2)c1` , tested on 5-hydroxytryptamine receptor 2B (Homo sapiens)?
6.46

Which measured pKi belongs to `O=C(CCCN1CCCN(c2ccc(Cl)cc2)CC1)c1ccc(F)cc1` , tested on 5-hydroxytryptamine receptor 2B (Homo sapiens)?
6.31

Which measured pKi belongs to `COc1ccc(CCN2CCN(Cc3cc4ccccc4o3)CC2)cc1` , tested on 5-hydroxytryptamine receptor 2B (Homo sapiens)?
6.33

Which measured pKi belongs to `CCNCc1ccc(Cl)c(-c2ccccc2OC)c1` , tested on 5-hydroxytryptamine receptor 2B (Homo sapiens)?
7.72

Which measured pKi belongs to COc1ccccc1-c1cc(C2CCN(C)C2)ccc1Cl (stereo unspecified) , tested on 5-hydroxytryptamine receptor 2B (Homo sapiens)?
6.77

* * *

pKi: −log10 of the molar value.
Here's a roundup of pKi values tested on 5-hydroxytryptamine receptor 2B (Homo sapiens), taken from various published works.
The label depends only on pKi: Met if it is at least 7, Not met if it is smaller.

Check out these entries, answers already filled in.
[
  {
    "molecule": "CCOc1cc(CN2CCC(Nc3nc4ccccc4o3)CC2)ccc1OC",
    "system-tested": "5-hydroxytryptamine receptor 2B (Homo sapiens)",
    "class-name": "Met"
  },
  {
    "molecule": "Cc1ccc2c(c1Br)CCN2C(=O)Nc1ccc(Oc2cccnc2C)nc1",
    "system-tested": "5-hydroxytryptamine receptor 2B (Homo sapiens)",
    "class-name": "Not met"
  },
  {
    "molecule": "Cc1cc2c(cc1Cl)N(C(=O)Nc1ccc(Oc3cccnc3C(C)C)nc1)CC2",
    "system-tested": "5-hydroxytryptamine receptor 2B (Homo sapiens)",
    "class-name": "Not met"
  },
  {
    "molecule": "O=C(/C=C/c1ccccc1)N(Cc1ccc(-c2ccc(CNCCc3ccccc3)cc2)cc1)Cc1cccnc1",
    "system-tested": "5-hydroxytryptamine receptor 2B (Homo sapiens)",
    "class-name": "Not met"
  }
]

Has NC(N)=NC(=O)c1ccc2c(c1)C(N)c1ccccc1-2 (stereo unspecified) a recorded pKi greater than or equal to 7?
Met

Has `O=c1cc(CCCc2cccc(C(F)(F)F)c2)oc2cccc(O)c12` a recorded pKi greater than or equal to 7?
Not met

Has `COc1ccc(CCN(CCCc2ccc(F)cc2)CCc2ccc3c(c2)OCO3)cc1OC` a recorded pKi greater than or equal to 7?
Met

Has COc1cc(CN[C@H]2C3C4CC5C6C4CC3C6C52)cc(OC)c1OC (stereo partly specified) a recorded pKi greater than or equal to 7?
Not met

Has `N#Cc1cc(F)cc(C#Cc2csc(CF)n2)c1` a recorded pKi greater than or equal to 7?
Not met
